Known GI50 of a selection of compounds
# Tested on: MDA-MB-435
# PROTOCOL: NCI tumour cell line growth inhibition, 48 h
The source made the active and inactive calls. Rule as the data show it: active = GI50 up to about 1.1 µM and inactive = higher.

{"columns": ["RECORD_SMILES", "GI50"],
 "data": [
  ["COc1cc(/C=C(\\C)[N+](=O)[O-])cc(OC)c1", "14.9 µM (inactive)"],
  ["CCNC(=S)NNC(=O)c1ccccc1Nc1ccccc1C(=O)NNC(=S)NCC", "> 100 µM (inactive)"],
  ["CC(C)c1ccc2c(c1)/C(=C1/Nc3ccccc3/C1=N/O)C(=O)N2", "7.38 µM (inactive)"],
  ["S=C(Nc1cccc(C2(N3CCCCC3)CCCCC2)c1)Nc1cccc(C2(N3CCCCC3)CCCCC2)c1", "16 µM (inactive)"],
  ["COCn1c2ccc(OC(C)=O)cc2c2c(=O)oc(C)nc21", "> 100 µM (inactive)"],
  ["c1ccc(Nc2nnc(CCCCCCCCc3nnc(Nc4ccccc4)o3)o2)cc1", "> 100 µM (inactive)"]
]}
